target: P2X7 receptor (Homo sapiens, UniProt Q99572); construct: host or cells: THP-1 cells differentiated with LPS and IFN-γ; test: IL-1β release assay in differentiated THP-1 cells stimulated with BzATP (Example 9); format: cell-based; conditions: 0.3 μM compound; differentiated THP-1 cells, BzATP 250 uM; "+" class symbols; read-out: IL-1β % Inhib. @ 0.3 μM
Sequence (Q99572 whole entry): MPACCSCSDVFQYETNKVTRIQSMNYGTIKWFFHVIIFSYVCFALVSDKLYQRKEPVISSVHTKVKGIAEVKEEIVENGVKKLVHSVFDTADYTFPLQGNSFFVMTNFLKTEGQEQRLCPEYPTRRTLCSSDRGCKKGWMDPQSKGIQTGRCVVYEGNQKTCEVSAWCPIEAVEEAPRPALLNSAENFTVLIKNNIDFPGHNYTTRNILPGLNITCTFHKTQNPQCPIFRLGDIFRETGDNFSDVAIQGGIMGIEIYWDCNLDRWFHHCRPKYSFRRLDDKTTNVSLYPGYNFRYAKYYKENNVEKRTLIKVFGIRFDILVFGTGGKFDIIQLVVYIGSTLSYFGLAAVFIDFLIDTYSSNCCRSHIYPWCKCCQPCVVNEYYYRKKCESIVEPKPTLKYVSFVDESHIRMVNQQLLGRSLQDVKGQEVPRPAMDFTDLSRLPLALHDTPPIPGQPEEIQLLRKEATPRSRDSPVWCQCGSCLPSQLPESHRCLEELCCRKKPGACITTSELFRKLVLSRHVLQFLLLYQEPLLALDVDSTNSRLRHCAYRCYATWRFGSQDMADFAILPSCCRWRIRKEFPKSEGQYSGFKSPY
Endpoint name: inhibition at 0.3 µM

Lab note: need inhibition at 0.3 µM with P2X7 receptor (Homo sapiens, UniProt Q99572) for entry CC(C)(C)OC(=O)N1CCC[C@@H]1Cn1ccc2c(NC(=O)Cc3ccc(Cl)c(C(F)(F)F)c3)cccc2c1=O , please look it up. ≥ 76%

Lab note: need inhibition at 0.3 µM with P2X7 receptor (Homo sapiens, UniProt Q99572) for entry CC(c1ccccn1)n1ccc2c(NC(=O)Cc3ccc(C(F)(F)F)c(F)c3)cccc2c1=O (stereo not drawn) , please look it up. ≥ 76%

Lab note: need inhibition at 0.3 µM with P2X7 receptor (Homo sapiens, UniProt Q99572) for entry CC(c1ccccn1)n1ccc2c(NC(=O)Cc3ccc(C(F)(F)F)cc3)cccc2c1=O (stereo not drawn) , please look it up. 51 to 75%

Lab note: need inhibition at 0.3 µM with P2X7 receptor (Homo sapiens, UniProt Q99572) for entry CC(c1ccccn1)n1ccc2c(NC(=O)Cc3cccc(C(F)(F)F)c3F)cccc2c1=O (stereo not drawn) , please look it up. ≥ 76%
